Just for reference, ChEMBL document CHEMBL1137864 is where these values come from.

System under test: Melanocortin receptor (M3 and M4) (Homo sapiens) (UniProt P32245+P41968)
Method notes: Ratio of EC50 of Melanocortin 4 receptor to that of Melanocortin 3 receptor
Format: protein assay
Recorded Ratio, one value per entry.
Returns: the value as a bare number; no unit string appended.

>>> endpoint_value("N=C(N)NCCC[C@H](NC(=O)C(Cc1ccccc1)NC(=O)[C@H](Cc1ccc(Cl)cc1)NC(=O)c1cccnc1)C(=O)N[C@@H](Cc1c[nH]c2ccccc12)C(N)=O (stereo in doubt)")
15
>>> endpoint_value("COP(=O)(N[C@@H](Cc1ccc(Cl)cc1)C(=O)NC(Cc1ccccc1)C(=O)N[C@@H](CCCN=C(N)N)C(=O)N[C@@H](Cc1c[nH]c2ccccc12)C(N)=O)OC (stereo in doubt)")
19
>>> endpoint_value("CC(=O)N[C@@H](Cc1ccc(Cl)cc1)C(=O)NC(Cc1ccccc1)C(=O)N[C@@H](CCCN=C(N)N)C(=O)N[C@@H](Cc1c[nH]c2ccccc12)C(N)=O (stereo in doubt)")
6
>>> endpoint_value("N=C(N)NCCC[C@H](NC(=O)C(Cc1ccccc1)NC(=O)[C@H](Cc1ccc(Cl)cc1)NC(=O)CCCCc1ccccc1)C(=O)N[C@@H](Cc1c[nH]c2ccccc12)C(N)=O (stereo in doubt)")
1
>>> endpoint_value("N=C(N)NCCC[C@H](NC(=O)C(Cc1ccccc1)NC(=O)[C@H](Cc1ccc(Cl)cc1)NC(=O)Nc1ccccc1)C(=O)N[C@@H](Cc1c[nH]c2ccccc12)C(N)=O (stereo in doubt)")
0.6
>>> endpoint_value("N=C(N)NCCC[C@H](NC(=O)C(Cc1ccccc1)NC(=O)[C@H](Cc1ccc(Cl)cc1)NC(=O)CC(N)=O)C(=O)N[C@@H](Cc1c[nH]c2ccccc12)C(N)=O (stereo in doubt)")
70
>>> endpoint_value("CC(C)C(=O)N[C@@H](Cc1ccc(Cl)cc1)C(=O)NC(Cc1ccccc1)C(=O)N[C@@H](CCCN=C(N)N)C(=O)N[C@@H](Cc1c[nH]c2ccccc12)C(N)=O (stereo in doubt)")
4
>>> endpoint_value("CNC(=O)N[C@@H](Cc1ccc(Cl)cc1)C(=O)NC(Cc1ccccc1)C(=O)N[C@@H](CCCN=C(N)N)C(=O)N[C@@H](Cc1c[nH]c2ccccc12)C(N)=O (stereo in doubt)")
10
>>> endpoint_value("N=C(N)NCCC[C@H](NC(=O)C(Cc1ccccc1)NC(=O)[C@H](Cc1ccc(Cl)cc1)NC(=O)CCCc1ccccc1)C(=O)N[C@@H](Cc1c[nH]c2ccccc12)C(N)=O (stereo in doubt)")
3

Requested field: Ratio. Item: CC(C)(C)C(=O)N[C@@H](Cc1ccc(Cl)cc1)C(=O)NC(Cc1ccccc1)C(=O)N[C@@H](CCCN=C(N)N)C(=O)N[C@@H](Cc1c[nH]c2ccccc12)C(N)=O (stereo in doubt)
6

====

System under test: Melanocortin receptor 4 (Homo sapiens, UniProt P32245)
Sequence (P32245 whole entry): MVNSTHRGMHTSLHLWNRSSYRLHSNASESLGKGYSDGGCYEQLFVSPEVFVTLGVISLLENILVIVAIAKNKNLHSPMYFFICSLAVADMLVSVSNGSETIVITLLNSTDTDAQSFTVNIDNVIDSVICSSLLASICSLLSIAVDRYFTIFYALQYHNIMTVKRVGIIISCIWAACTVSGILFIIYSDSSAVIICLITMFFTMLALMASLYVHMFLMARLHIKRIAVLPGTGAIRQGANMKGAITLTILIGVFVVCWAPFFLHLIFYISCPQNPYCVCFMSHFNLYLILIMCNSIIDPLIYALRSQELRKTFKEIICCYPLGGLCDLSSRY
Method notes: Agonistic activity against human Melanocortin 4 receptor
Recorded pEC50, one value per entry.
pEC50 here is simply -log10 of the concentration when that concentration is written in mol/L.

>>> endpoint_value("N=C(N)NCCC[C@H](NC(=O)C(Cc1ccccc1)NC(=O)[C@H](Cc1ccc(Cl)cc1)NC(=O)c1ccccn1)C(=O)N[C@@H](Cc1c[nH]c2ccccc12)C(N)=O (stereo in doubt)")
7.50
>>> endpoint_value("N=C(N)NCCC[C@H](NC(=O)C(Cc1ccccc1)NC(=O)[C@H](Cc1ccc(Cl)cc1)NC(=O)CCCCc1ccccc1)C(=O)N[C@@H](Cc1c[nH]c2ccccc12)C(N)=O (stereo in doubt)")
7.35

Query pEC50 on Melanocortin receptor 4 (Homo sapiens, UniProt P32245) for CCCCC(=O)N[C@@H](Cc1ccc(Cl)cc1)C(=O)NC(Cc1ccccc1)C(=O)N[C@@H](CCCN=C(N)N)C(=O)N[C@@H](Cc1c[nH]c2ccccc12)C(N)=O (stereo in doubt)
6.81

Query pEC50 on Melanocortin receptor 4 (Homo sapiens, UniProt P32245) for CC(C)C(=O)N[C@@H](Cc1ccc(Cl)cc1)C(=O)NC(Cc1ccccc1)C(=O)N[C@@H](CCCN=C(N)N)C(=O)N[C@@H](Cc1c[nH]c2ccccc12)C(N)=O (stereo in doubt)
6.91

Query pEC50 on Melanocortin receptor 4 (Homo sapiens, UniProt P32245) for COP(=S)(N[C@@H](Cc1ccc(Cl)cc1)C(=O)NC(Cc1ccccc1)C(=O)N[C@@H](CCCN=C(N)N)C(=O)N[C@@H](Cc1c[nH]c2ccccc12)C(N)=O)OC (stereo in doubt)
6.35

====

System under test: Melanocyte-stimulating hormone receptor (Homo sapiens)
Method notes: Agonistic activity against human Melanocortin 1 receptor
pEC50: −log10 of the molar value.
Values of pEC50 greater than or equal to 6 map to true; values below map to false.

Check if pEC50 >= 6 (inclusive). Item: N=C(N)NCCC[C@H](NC(=O)C(Cc1ccccc1)NC(=O)[C@H](Cc1ccc(Cl)cc1)NC(=O)CCC(=O)c1cc(F)cc(F)c1)C(=O)N[C@@H](Cc1c[nH]c2ccccc12)C(N)=O (stereo in doubt)
true

Check if pEC50 >= 6 (inclusive). Item: N=C(N)NCCC[C@H](NC(=O)C(Cc1ccccc1)NC(=O)[C@H](Cc1ccc(Cl)cc1)NC(=O)CCc1ccccc1)C(=O)N[C@@H](Cc1c[nH]c2ccccc12)C(N)=O (stereo in doubt)
true

====

System under test: Melanocortin receptor 3 (Homo sapiens, UniProt P41968)
Sequence (P41968 whole entry): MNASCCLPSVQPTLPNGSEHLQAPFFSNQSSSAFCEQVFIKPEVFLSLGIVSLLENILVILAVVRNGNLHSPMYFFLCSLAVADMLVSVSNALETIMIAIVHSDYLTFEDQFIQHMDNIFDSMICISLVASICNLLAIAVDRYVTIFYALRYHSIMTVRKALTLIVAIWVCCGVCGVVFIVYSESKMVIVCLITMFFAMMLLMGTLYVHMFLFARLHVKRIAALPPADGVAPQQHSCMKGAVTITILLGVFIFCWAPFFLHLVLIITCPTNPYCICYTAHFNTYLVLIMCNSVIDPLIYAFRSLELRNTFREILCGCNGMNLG
Method notes: Agonistic activity against human Melanocortin 3 receptor
Format: functional
Metric name: pEC50
pEC50 here is simply -log10 of the concentration when that concentration is written in mol/L.

Study these solved cases before continuing.
>>> endpoint_value("N=C(N)NCCC[C@H](NC(=O)C(Cc1ccccc1)NC(=O)[C@H](Cc1ccc(Cl)cc1)NC(=O)CCc1ccccc1)C(=O)N[C@@H](Cc1c[nH]c2ccccc12)C(N)=O (stereo in doubt)")
6.77
>>> endpoint_value("N=C(N)NCCC[C@H](NC(=O)C(Cc1ccccc1)NC(=O)[C@H](Cc1ccc(Cl)cc1)NC(=O)CCCc1ccccc1)C(=O)N[C@@H](Cc1c[nH]c2ccccc12)C(N)=O (stereo in doubt)")
6.68

Requested field: pEC50. Item: CC(C)C(=O)N[C@@H](Cc1ccc(Cl)cc1)C(=O)NC(Cc1ccccc1)C(=O)N[C@@H](CCCN=C(N)N)C(=O)N[C@@H](Cc1c[nH]c2ccccc12)C(N)=O (stereo in doubt)
6.30

====

Recorded pEC50, one value per entry.
System under test: Melanocyte-stimulating hormone receptor (Homo sapiens, UniProt Q01726)
Sequence (Q01726 whole entry): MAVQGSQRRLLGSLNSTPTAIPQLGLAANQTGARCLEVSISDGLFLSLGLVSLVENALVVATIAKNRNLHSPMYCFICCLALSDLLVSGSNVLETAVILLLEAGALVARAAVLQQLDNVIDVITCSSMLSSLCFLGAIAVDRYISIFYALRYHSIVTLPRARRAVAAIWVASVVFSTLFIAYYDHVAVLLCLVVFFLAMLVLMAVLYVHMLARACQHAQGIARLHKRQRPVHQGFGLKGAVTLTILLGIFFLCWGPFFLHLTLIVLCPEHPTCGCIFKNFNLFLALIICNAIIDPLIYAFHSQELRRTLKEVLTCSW
Method notes: Agonistic activity against human Melanocortin 1 receptor
pEC50 here is simply -log10 of the concentration when that concentration is written in mol/L.

Requested field: pEC50. Item: CCOC(=O)N[C@@H](Cc1ccc(Cl)cc1)C(=O)NC(Cc1ccccc1)C(=O)N[C@@H](CCCN=C(N)N)C(=O)N[C@@H](Cc1c[nH]c2ccccc12)C(N)=O (stereo in doubt)
6.68

====

System under test: Melanocortin receptor 4 (Homo sapiens, UniProt P32245)
Method notes: Agonistic activity against human Melanocortin 4 receptor
Metric name: EC50 (nM)
# output: bare number, implied unit nM

Study these solved cases before continuing.
>>> endpoint_value("CCOC(=O)N[C@@H](Cc1ccc(Cl)cc1)C(=O)NC(Cc1ccccc1)C(=O)N[C@@H](CCCN=C(N)N)C(=O)N[C@@H](Cc1c[nH]c2ccccc12)C(N)=O (stereo in doubt)")
35
>>> endpoint_value("N=C(N)NCCC[C@H](NC(=O)C(Cc1ccccc1)NC(=O)[C@H](Cc1ccc(Cl)cc1)NC(=O)c1cccnc1)C(=O)N[C@@H](Cc1c[nH]c2ccccc12)C(N)=O (stereo in doubt)")
21
>>> endpoint_value("N=C(N)NCCC[C@H](NC(=O)C(Cc1ccccc1)NC(=O)[C@H](Cc1ccc(Cl)cc1)NC(=O)COc1ccccc1)C(=O)N[C@@H](Cc1c[nH]c2ccccc12)C(N)=O (stereo in doubt)")
185
>>> endpoint_value("N=C(N)NCCC[C@H](NC(=O)C(Cc1ccccc1)NC(=O)[C@H](Cc1ccc(Cl)cc1)NC(=O)C1CC1)C(=O)N[C@@H](Cc1c[nH]c2ccccc12)C(N)=O (stereo in doubt)")
38.5

# evaluate next
Requested field: EC50. Item: CC(=O)N[C@@H](Cc1ccc(Cl)cc1)C(=O)NC(Cc1ccccc1)C(=O)N[C@@H](CCCN=C(N)N)C(=O)N[C@@H](Cc1c[nH]c2ccccc12)C(N)=O (stereo in doubt)
88.5

====

System under test: Melanocortin receptor (M1 and M4) (Homo sapiens) (UniProt P32245+Q01726)
Method notes: Ratio of EC50 of Melanocortin 4 receptor to that of Melanocortin 1 receptor
Format: protein assay
Metric name: Ratio
Returns: the value as a bare number; no unit string appended.

Study these solved cases before continuing.
>>> endpoint_value("N=C(N)NCCC[C@H](NC(=O)C(Cc1ccccc1)NC(=O)[C@H](Cc1ccc(Cl)cc1)NC(=O)c1c(F)c(F)c(F)c(F)c1F)C(=O)N[C@@H](Cc1c[nH]c2ccccc12)C(N)=O (stereo in doubt)")
3
>>> endpoint_value("N=C(N)NCCC[C@H](NC(=O)C(Cc1ccccc1)NC(=O)[C@H](Cc1ccc(Cl)cc1)NC(=O)c1cccnc1)C(=O)N[C@@H](Cc1c[nH]c2ccccc12)C(N)=O (stereo in doubt)")
28
>>> endpoint_value("N=C(N)NCCC[C@H](NC(=O)C(Cc1ccccc1)NC(=O)[C@H](Cc1ccc(Cl)cc1)NC(=O)C(N)=O)C(=O)N[C@@H](Cc1c[nH]c2ccccc12)C(N)=O (stereo in doubt)")
11
>>> endpoint_value("N=C(N)NCCC[C@H](NC(=O)C(Cc1ccccc1)NC(=O)[C@H](Cc1ccc(Cl)cc1)NC(=O)CNC=O)C(=O)N[C@@H](Cc1c[nH]c2ccccc12)C(N)=O (stereo in doubt)")
43
>>> endpoint_value("CSCC(=O)N[C@@H](Cc1ccc(Cl)cc1)C(=O)NC(Cc1ccccc1)C(=O)N[C@@H](CCCN=C(N)N)C(=O)N[C@@H](Cc1c[nH]c2ccccc12)C(N)=O (stereo in doubt)")
10
>>> endpoint_value("N=C(N)NCCC[C@H](NC(=O)C(Cc1ccccc1)NC(=O)[C@H](Cc1ccc(Cl)cc1)NC(=O)CCCCc1ccccc1)C(=O)N[C@@H](Cc1c[nH]c2ccccc12)C(N)=O (stereo in doubt)")
3

Requested field: Ratio. Item: COP(=O)(N[C@@H](Cc1ccc(Cl)cc1)C(=O)NC(Cc1ccccc1)C(=O)N[C@@H](CCCN=C(N)N)C(=O)N[C@@H](Cc1c[nH]c2ccccc12)C(N)=O)OC (stereo in doubt)
6
